biological target: caspase-1 (Homo sapiens); experiment: Caspase-1 inhibition assay, cleavage of fluorogenic substrate YVAD-AFC; assay type: biochemical; conditions: read-out: Enzyme activity (% at 100 μM)
REPORTED METRIC: remaining activity at 100 µM (%)

- O=C(O)C[C@H](O)CNC(c1cccs1)c1nnnn1CCCC(=O)N1CCc2ccccc2C1 (mixture of isomers) [(3S)5ah]: 37.2

P: O=C(O)C[C@@H](O)CNC(c1cccs1)c1nnnn1CCCC(=O)N1CCc2ccccc2C1 (mixture of isomers) [(3R)5ah]
Q: CC(C)(C)CC(NC[C@H](O)CC(=O)O)c1nnnn1CCCC(=O)N1CCc2ccccc2C1 (mixture of isomers) [(3R)5ae]
Could you determine which record has the numerically smaller remaining activity at 100 µM? Candidates: P and Q The response must carry the label of the picked entry.
Q

----------
Target: UniProtKB P29466
Sequence (P29466 120-297 limits assumed): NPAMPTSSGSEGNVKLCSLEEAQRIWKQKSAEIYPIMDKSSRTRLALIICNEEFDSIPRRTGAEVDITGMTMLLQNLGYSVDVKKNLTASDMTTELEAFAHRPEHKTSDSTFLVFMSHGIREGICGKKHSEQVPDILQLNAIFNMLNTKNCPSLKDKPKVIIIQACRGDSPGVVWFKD
Sequence (P29466 317-404 limits assumed): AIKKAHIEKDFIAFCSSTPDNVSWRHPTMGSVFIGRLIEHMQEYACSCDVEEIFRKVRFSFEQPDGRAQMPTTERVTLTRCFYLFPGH
REPORTED METRIC: IC50 (µM)

Answered examples (5):
- CC(C)(C)CC(NC[C@H](O)CC(=O)O)c1nnnn1CCCC(=O)N1CCc2ccccc2C1 (mixture of isomers): 12.2
- O=C(O)C[C@H](O)CNC(c1ccccc1)c1nnnn1CCCC(=O)N1CCc2ccccc2C1 (mixture of isomers): 68
- O=C(O)C[C@@H](O)CNC(c1cccs1)c1nnnn1CCCC(=O)NCc1ccccc1 (mixture of isomers): 77.8
- CC(C)(C)CC(c1nnnn1CCCC(=O)N1CCc2ccccc2C1)N(Cc1ccccc1)C[C@H](O)CC(=O)O (mixture of isomers) [(3R)16ac]: 15
- O=C(O)C[C@H](O)CNC(c1cccs1)c1nnnn1CCCC(=O)N1CCc2ccccc2C1 (mixture of isomers): 51.4

a: O=C(O)C[C@@H](O)CNC(c1ccccc1)c1nnnn1CCCC(=O)N1CCc2ccccc2C1 (mixture of isomers)
b: O=C(O)C[C@@H](O)CNC(c1cccs1)c1nnnn1CCCC(=O)N1CCc2ccccc2C1 (mixture of isomers)
Between a and b , which one shows the larger IC50 value? The response must carry the label of the picked entry.
a

----------
Target: UniProt P29466
Sequence (P29466 120-297 limits assumed): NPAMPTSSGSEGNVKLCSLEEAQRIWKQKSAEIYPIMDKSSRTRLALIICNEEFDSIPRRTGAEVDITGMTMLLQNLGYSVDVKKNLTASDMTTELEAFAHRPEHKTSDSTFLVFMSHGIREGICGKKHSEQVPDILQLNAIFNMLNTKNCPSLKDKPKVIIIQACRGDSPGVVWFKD
Sequence (P29466 317-404 limits assumed): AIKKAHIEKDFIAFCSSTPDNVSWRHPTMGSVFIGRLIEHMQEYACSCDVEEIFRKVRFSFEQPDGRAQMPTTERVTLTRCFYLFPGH
Experiment: Caspase-1 inhibition assay, cleavage of fluorogenic substrate YVAD-AFC
Assay type: biochemical
Conditions: read-out: Enzyme activity (% at 100 μM)
Consider the following molecules and their measured remaining activity at 100 µM readings.

• COc1cc2c(cc1OC)CN(C(=O)CCCn1nnnc1C(NCC(O)CC(=O)O)C(C)C)CC2 (stereo not shown) = > 96.7%
• COc1cc2c(cc1OC)CN(C(=O)CCCn1nnnc1C(NCC(O)CC(=O)O)c1cccs1)CC2 (stereo not shown) = > 96.7%
• CC(C)C(NCC(O)CC(=O)O)c1nnnn1CCCC(=O)NCc1ccccc1 (stereo not shown) = > 96.7%

Hi! What's the reported remaining activity at 100 µM for O=C(O)CC(O)CNC(c1cccs1)c1nnnn1CCCC(=O)NCc1ccccc1 (stereo not shown) on UniProt P29466?
> 96.7%

Just for reference, paper PMC8598261 is where these values come from.
